Cited source: BigSolDB 2.1

conditions: in water, 328.2 K
value-kind: solubility (mole fraction)
Would you mind answering with just the numeric figure?

Task item: Any idea what solubility (mole fraction) was measured for CCn1cc(C(=O)O)c(=O)c2cc(F)c(N3CCNCC3)cc21 ?
Reply: 2.05e-05

----------
settings: in ethanol, 315.1 K
value-kind: solubility (mole fraction)
Would you mind answering with just the numeric figure?

Task item: Any idea what solubility (mole fraction) was measured for CCn1nc(C(=O)O)c(=O)c2cc3c(cc21)OCO3 ?
Reply: 0.0001

----------
conditions: in ethanol, 319.5 K
value-kind: solubility (mole fraction)
Would you mind answering with just the numeric figure?

Task item: Any idea what solubility (mole fraction) was measured for CCn1nc(C(=O)O)c(=O)c2cc3c(cc21)OCO3 ?
Reply: 0.00011

----------
details: in ethanol, 345.5 K
value-kind: solubility (mole fraction)
Would you mind answering with just the numeric figure?

Task item: Any idea what solubility (mole fraction) was measured for CC1CCc2cc(F)cc3c(=O)c(C(=O)O)cn1c23 (stereo unspecified) ?
Reply: 0.0012

----------
details: in water, 296 K
value-kind: solubility (mole fraction)
Would you mind answering with just the numeric figure?

Task item: Any idea what solubility (mole fraction) was measured for CCn1cc(C(=O)O)c(=O)c2cc(F)c(N3CCNC(C)C3)c(F)c21.Cl (stereo unspecified) ?
Reply: 0.00088

----------
details: in water, 311.7 K
value-kind: solubility (mole fraction)
Would you mind answering with just the numeric figure?

Task item: Any idea what solubility (mole fraction) was measured for CCn1cc(C(=O)O)c(=O)c2cc(F)c(N3CCNC(C)C3)c(F)c21.Cl (stereo unspecified) ?
Reply: 0.00099

----------
conditions: in ethanol, 342.1 K
value-kind: solubility (mole fraction)
Would you mind answering with just the numeric figure?

Task item: Any idea what solubility (mole fraction) was measured for CC1CCc2cc(F)cc3c(=O)c(C(=O)O)cn1c23 (stereo unspecified) ?
Reply: 0.00096

----------
conditions: in ethanol, 320.7 K
value-kind: solubility (mole fraction)
Would you mind answering with just the numeric figure?

Task item: Any idea what solubility (mole fraction) was measured for CC1CCc2cc(F)cc3c(=O)c(C(=O)O)cn1c23 (stereo unspecified) ?
Reply: 0.00034

----------
conditions: in ethanol, 325.6 K
value-kind: solubility (mole fraction)
Would you mind answering with just the numeric figure?

Task item: Any idea what solubility (mole fraction) was measured for CCn1nc(C(=O)O)c(=O)c2cc3c(cc21)OCO3 ?
Reply: 0.00015

----------
details: in ethanol, 308.2 K
value-kind: solubility (mole fraction)
Would you mind answering with just the numeric figure?

Task item: Any idea what solubility (mole fraction) was measured for CCn1cc(C(=O)O)c(=O)c2cc(F)c(N3CCNC(C)C3)c(F)c21.Cl (stereo unspecified) ?
Reply: 3.8e-05

----------
details: in ethanol, 337.2 K
value-kind: solubility (mole fraction)

Task item: Any idea what solubility (mole fraction) was measured for CCn1nc(C(=O)O)c(=O)c2cc3c(cc21)OCO3 ?
Reply: 0.00024

----------
settings: in ethanol, 315.2 K
value-kind: solubility (mole fraction)

Task item: Any idea what solubility (mole fraction) was measured for CC1CCc2cc(F)cc3c(=O)c(C(=O)O)cn1c23 (stereo unspecified) ?
Reply: 0.00023

----------
details: in ethanol, 318.2 K
value-kind: solubility (mole fraction)
Would you mind answering with just the numeric figure?

Task item: Any idea what solubility (mole fraction) was measured for CCn1cc(C(=O)O)c(=O)c2cc(F)c(N3CCNC(C)C3)c(F)c21.Cl (stereo unspecified) ?
Reply: 4.4e-05
